System: NCI-H1417 cells (human small-cell lung cancer cell lines);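 further: growth of NCI-H1417 cells over 10 days at 37 °C, read as viable-cell luminescence by CellTiter-Glo 2.0, expressed as % of DMSO-only control wells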
Assay: cells
Details: NCI-H1417, read-out: Cell-Growth Inhibition Test: NCI-H1417 Cells IC50 (nM)
Structures can show the parent of a compound that is named as a salt.
observable: IC50

Exercise: Endpoint output: IC50 of CC(C)(O)Cn1ncc2cc(-c3ccc(CN4CCC5(CNC5)C4)cc3-c3ccc(C#N)c(F)c3)c(F)cc21 [Example 300, dihydrochloride] . Value?
Key: 1.53 nM

Exercise: Please give the measured IC50 for this compound: Cn1cc(C(N)=O)c2cc(-c3ccc(C(=O)N4C5CCC4C(N)C5)cc3-c3ccc(C#N)c(F)c3)c(F)cc21 (stereo not shown)
Key: 11 nM

Exercise: // lookup IC50 for CCC(O)(CC)Cn1nnc2cc(-c3ccc(C(=O)N4[C@@H]5CC[C@H]4C[C@@H](N)C5)cc3-c3ccc(C#N)c(F)c3)c(F)c(Cl)c21
Key: 1.03 nM

Exercise: // IC50 lookup, key: CC(C)(O)Cn1nnc2cc(-c3ccc(C(=O)N4C5CCC4C(N)C5)cc3-c3ccc(C#N)c(F)c3)c(F)c(Cl)c21 (stereo not shown)
Key: 0.18 nM

Exercise: I'd like to know its IC50. The compound in question is COCCc1ccc(-c2ccc(C(=O)N3[C@@H]4CC[C@H]3C[C@H](NC(C)C)C4)cc2-c2ccc(C#N)c(F)c2)c(F)c1
Key: 20.5 nM

Exercise: Consider the compound COc1c(F)c(-c2ccc(C(=O)N3[C@@H]4CC[C@H]3C[C@@H](N)C4)cc2-c2ccc(C#N)c(F)c2)cc2cnn(CC(C)(C)O)c12 and give its measured IC50.
Key: 5.95 nM

Exercise: Any idea what its IC50 is? The compound is CCC(O)(CC)Cn1nnc2cc(-c3ccc(CN4C5CCC4C(N)C5)cc3-c3ccc(C#N)c(F)c3)c(F)c(Br)c21 (stereo not shown) [Example 295, dihydrochloride]
Key: 0.066 nM

Exercise: Can you look up the measured IC50 of N#Cc1ccc(-c2cc(C(=O)N3[C@@H]4CC[C@H]3C[C@H](N)C4)ccc2-c2ccc3cccnc3c2F)cc1F for me?
Key: 11.7 nM

Exercise: Look up IC50: CC(C)(O)Cc1ccc(-c2ccc(C(=O)N3[C@@H]4CC[C@H]3C[C@H](N)C4)cc2-c2ccc(C#N)c(F)c2)c(F)c1
Key: 4.4 nM

Exercise: Would you mind telling me what IC50 value was observed for N#Cc1ccc(-c2cc(C(=O)N3[C@@H]4CC[C@H]3C[C@H](N)C4)ccc2-c2ccc3cccnc3c2)cc1F ?
Key: 18.2 nM

Exercise: What does the record list as IC50 for Cn1cnc2cc(-c3ccc(C(=O)N4[C@@H]5CC[C@H]4C[C@@H](N)C5)cc3-c3ccc(C#N)c(F)c3)c(F)c(F)c21 ?
Key: 5.02 nM

Exercise: Fill in: IC50 of Cc1c(F)c(-c2ccc(C(=O)N3[C@@H]4CC[C@H]3C[C@@H](N)C4)cc2-c2ccc(C#N)c(F)c2)cc2nnn(CC3(O)CCC3)c12 is ___
Key: 0.81 nM

Exercise: Name the recorded IC50 for CC(C)(O)Cn1ncc2cc(-c3ccc(C(=O)N4[C@@H]5CC[C@H]4C[C@@H](N)C5)cc3-c3ccc(C#N)c(F)c3)c(F)cc21 .
Key: 3.79 nM

* * *

System: HEL cells (human acute myelocytic leukemia cell lines)
Experiment: cells
Details: read-out: Cell-Growth Inhibition Test: HEL Cells IC50 (nM)
Structures can show the parent of a compound that is named as a salt.
observable: IC50 (nM)
# number only, unit nM dropped from output

Exercise: Notebook entry, HEL cells (human acute myelocytic leukemia cell lines) assay: IC50 of CCC(O)(CC)Cn1nnc2cc(-c3ccc(CN4C5CCC4C(N)C5)cc3-c3ccc(C#N)c(F)c3)c(F)c(F)c21 (stereo not shown) [Example 293, dihydrochloride] = ?
Key: 0.081

Exercise: # get_value(readout= IC50, system= HEL cells (human acute myelocytic leukemia cell lines)) for Cn1ncc2c(F)c(-c3ccc(C(=O)N4[C@@H]5CC[C@H]4C[C@H](N)C5)cc3-c3ccc(C#N)c(F)c3)ccc21
Key: 7.41

Exercise: Lab note: need IC50 for Cn1ccc2cc(-c3ccc(C(=O)N4[C@@H]5CC[C@H]4C[C@H](N)C5)cc3-c3ccc(C#N)c(F)c3)ccc21 on HEL cells (human acute myelocytic leukemia cell lines), anyone have it?
Key: 3.55

Exercise: So what IC50 did N#Cc1ccc(-c2cc(C(=O)N3[C@@H]4CC[C@H]3C[C@@H](N)C4)ccc2-c2cc3nnn(CC4(O)CCC4)c3c(F)c2F)cc1F get with HEL cells (human acute myelocytic leukemia cell lines)?
Key: 1.31

Exercise: Kindly state the measured IC50 obtained for Cn1nnc2cc(-c3ccc(C(=O)N4[C@@H]5CC[C@H]4C[C@@H](N)C5)cc3-c3ccc(C#N)c(F)c3)c(F)cc21 with HEL cells (human acute myelocytic leukemia cell lines).
Key: 7.57

Exercise: Which measured IC50 belongs to N#Cc1ccc(-c2cc(C(=O)N3[C@@H]4CC[C@H]3C[C@@H](N)C4)ccc2-c2cc3nnn(CC4(O)CCC4)c3c(C#N)c2F)cc1F , tested on HEL cells (human acute myelocytic leukemia cell lines)?
Key: 4.63

Exercise: For HEL cells (human acute myelocytic leukemia cell lines), provide IC50 of CCC(O)(CC)Cn1nnc2cc(-c3ccc(C(=O)N4[C@@H]5CC[C@H]4C[C@@H](N)C5)cc3-c3ccc(C#N)c(F)c3)c(F)c(Cl)c21 please.
Key: 1.09

Exercise: Test system HEL cells (human acute myelocytic leukemia cell lines); read-out IC50; what value for Cc1ccc(-c2ccc(CN3C4CCC3C(N)C4)cc2-c2ccc(C#N)c(F)c2)c(F)c1 (stereo not shown) ?
Key: 0.79

Exercise: Form entry - test system: HEL cells (human acute myelocytic leukemia cell lines); read-out: IC50; compound: CCC(O)(CC)Cn1nnc2cc(-c3ccc(C(=O)N4C5CCC4C(N)C5)cc3-c3ccc(C#N)c(F)c3)c(F)c(F)c21 (stereo not shown)
Key: 0.44

Exercise: Form: Entry = Cc1ccc(-c2ccc(C(C)N3C4CCC3C(N)C4)cc2-c2ccc(C#N)c(F)c2)c(F)c1 (stereo not shown) [Example 292, dihydrochloride] | System = HEL cells (human acute myelocytic leukemia cell lines) | IC50 = ____
Key: 0.91

Exercise: Hello, I am looking for reported IC50 with HEL cells (human acute myelocytic leukemia cell lines) for CN1CCOc2cc(-c3ccc(C(=O)N4[C@@H]5CC[C@H]4C[C@H](N)C5)cc3-c3ccc(C#N)c(F)c3)ccc21 . Could you help?
Key: 5.74

Exercise: Lab note: need IC50 for Cc1noc2cc(-c3ccc(C(=O)N4C5CCC4C(N)C5)cc3-c3ccc(C#N)c(F)c3)c(F)cc12 (stereo not shown) on HEL cells (human acute myelocytic leukemia cell lines), anyone have it?
Key: 0.24

Exercise: Item: CC(C)(O)Cn1ncc2cc(-c3ccc(CN4CC5(CCCNC5)C4)cc3-c3ccc(C#N)c(F)c3)c(F)cc21 [Example 298, dihydrochloride] Test system: HEL cells (human acute myelocytic leukemia cell lines) Read-out: IC50 Value: ?
Key: 0.46

* * *

Tested on: HEL cells (human acute myelocytic leukemia cell lines)
Assay: cells
Conditions: read-out: Cell-Growth Inhibition Test: HEL Cells IC50 (nM)
observable: IC50 (nM)
Numbers only; they are read as nM.

Exercise: What IC50 appears in the records for this compound with HEL cells (human acute myelocytic leukemia cell lines)? Cn1nnc2cc(-c3ccc(C(=O)N4[C@@H]5CC[C@H]4C[C@@H](N)C5)cc3-c3ccc(C#N)c(F)c3)c(F)c(F)c21
Key: 1.61

Exercise: What value of IC50 on HEL cells (human acute myelocytic leukemia cell lines) does Cn1ncc2cc(-c3ccc(C(=O)N4[C@@H]5CC[C@H]4C[C@@H](N)C5)cc3-c3ccc(C#N)c(F)c3)c(F)cc21 have?
Key: 2.84

Exercise: Request body: readout IC50, system HEL cells (human acute myelocytic leukemia cell lines), query Cn1cnc2cc(-c3ccc(C(=O)N4[C@@H]5CC[C@H]4C[C@@H](N)C5)cc3-c3ccc(C#N)c(F)c3)c(F)c(F)c21 . Return the value.
Key: 5.39

* * *

System: HEL cells (human acute myelocytic leukemia cell lines)
Test: cells
Conditions: read-out: Cell-Growth Inhibition Test: HEL Cells IC50 (nM)
Give measured IC50 for each item. Keep answers brief.
Output spec: scalar in nM, unitless text.

Exercise: Entry Cc1c(F)c(-c2ccc(C(=O)N3[C@@H]4CC[C@H]3C[C@@H](N)C4)cc2-c2ccc(C#N)c(F)c2)cc2nnn(CC(C)(C)O)c12 , system HEL cells (human acute myelocytic leukemia cell lines): what IC50 was measured?
Key: 4.2

Exercise: Report IC50 for Cn1cnc2cc(-c3ccc(C(=O)N4[C@@H]5CC[C@H]4C[C@@H](N)C5)cc3-c3ccc(C#N)c(F)c3)c(F)cc21 tested on HEL cells (human acute myelocytic leukemia cell lines).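 Further: viable cell count by CellTiter-Glo 2.0 luminescence after 5 days of culture at 37 °C, growth expressed relative to DMSO-only wells as 100%.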
Key: 22.2

Exercise: Quick check: IC50 on HEL cells (human acute myelocytic leukemia cell lines), item Cn1ncc2cc(-c3ccc(C(=O)N4[C@@H]5CC[C@H]4C[C@H](N)C5)cc3-c3ccc(C#N)c(F)c3)c(F)cc21 ?
Key: 3.56
